Data credit: patent US6720423B2

targetOrSystem: RARγ (Homo sapiens, UniProt P13631)
Sequence (P13631 1-454): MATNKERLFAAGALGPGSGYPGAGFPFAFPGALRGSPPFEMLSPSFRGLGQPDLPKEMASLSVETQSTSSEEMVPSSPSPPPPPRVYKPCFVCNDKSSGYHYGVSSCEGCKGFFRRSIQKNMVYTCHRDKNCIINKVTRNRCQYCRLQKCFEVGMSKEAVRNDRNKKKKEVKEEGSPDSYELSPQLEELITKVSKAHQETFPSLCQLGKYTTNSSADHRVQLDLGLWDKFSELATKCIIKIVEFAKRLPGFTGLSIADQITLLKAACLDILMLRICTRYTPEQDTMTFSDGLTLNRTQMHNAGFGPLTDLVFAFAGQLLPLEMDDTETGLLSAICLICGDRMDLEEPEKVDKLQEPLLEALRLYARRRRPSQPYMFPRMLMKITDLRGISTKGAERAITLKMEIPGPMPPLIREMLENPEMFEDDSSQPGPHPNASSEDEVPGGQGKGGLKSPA
procedureDetails: ligand binding assay, RARγ
conditionSet: second entry of cell, read-out: RAR Bind. Ki (nM) γ
Here, each record is paired with measured Ki data.
reportedProperty: Ki

CC(/C=C/[C@@H]1C[C@@H]1c1ccc2c(c1)C(C)(C)CO2)=C\C(=O)O    > 10000 nM
CCc1cc([C@@]2(C)C[C@H]2/C=C/C(C)=C/C(=O)O)cc2c1OCC2(C)C    13000 nM
CC(/C=C/[C@@H]1C[C@]1(C)c1cc(C(C)(C)C)c2c(c1)C(C)(C)CO2)=C\C(=O)O    13000 nM
CC(/C=C/[C@@H]1C[C@]1(C)c1cc(C)c2c(c1)C(C)(C)CO2)=C\C(=O)O    > 10000 nM
CCCCCCc1cc([C@@]2(C)C[C@H]2/C=C/C(C)=C/C(=O)O)cc2c1OCC2(C)C    9260 nM
CCCCC(=O)CCc1cc([C@@]2(C)C[C@H]2/C=C/C(C)=C/C(=O)O)cc2c1OCC2(C)C    > 10000 nM
CC(/C=C/[C@@H]1C[C@]1(C)c1cc(-c2ccc(C(C)(C)C)cc2)c2c(c1)C(C)(C)CO2)=C\C(=O)O    > 10000 nM

----------
targetOrSystem: UniProt P28704
procedureDetails: ligand binding assay, RXRβ
Design: other: RXRβ; last entry of cell
conditionSet: last entry of cell, read-out: RXR Bind Ki (nM) β
reportedProperty: Ki

CC(/C=C/[C@@H]1C[C@]1(C)c1cc(-c2ccccc2C)c2c(c1)C(C)(C)CO2)=C\C(=O)O    1.9 nM
CC(/C=C/[C@@H]1C[C@@H]1c1ccc2c(c1)C(C)(C)CO2)=C\C(=O)O    312 nM
CC(/C=C/[C@@H]1C[C@]1(C)c1cc(-c2ccc(C(C)(C)C)cc2)c2c(c1)C(C)(C)CO2)=C\C(=O)O    441 nM
CCCCCCc1cc([C@@]2(C)C[C@H]2/C=C/C(C)=C/C(=O)O)cc2c1OCC2(C)C    5.1 nM
CC(/C=C/[C@@H]1C[C@]1(C)c1cc(CC(C)(C)C)c2c(c1)C(C)(C)CO2)=C\C(=O)O    1.5 nM

----------
targetOrSystem: UniProt P10276
Sequence (P10276 whole entry, species assumed): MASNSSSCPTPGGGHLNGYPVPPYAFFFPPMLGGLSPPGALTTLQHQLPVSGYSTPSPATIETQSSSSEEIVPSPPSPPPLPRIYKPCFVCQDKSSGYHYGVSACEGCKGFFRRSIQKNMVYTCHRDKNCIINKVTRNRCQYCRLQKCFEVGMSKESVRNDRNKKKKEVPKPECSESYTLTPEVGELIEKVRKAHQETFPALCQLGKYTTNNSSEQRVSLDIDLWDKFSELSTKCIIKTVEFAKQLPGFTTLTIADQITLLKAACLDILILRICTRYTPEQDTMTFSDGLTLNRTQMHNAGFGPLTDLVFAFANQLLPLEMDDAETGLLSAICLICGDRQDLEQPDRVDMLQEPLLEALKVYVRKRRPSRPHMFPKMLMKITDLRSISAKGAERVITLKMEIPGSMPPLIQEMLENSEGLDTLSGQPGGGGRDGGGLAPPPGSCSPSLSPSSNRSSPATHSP
procedureDetails: ligand binding assay, RARα
conditionSet: second entry of cell, read-out: RAR Bind. Ki (nM) α
Consider the cut-off 20000 nM. If the recorded Ki is strictly smaller, the label is T; if not, the label is F.

CCc1cc([C@@]2(C)C[C@H]2/C=C/C(C)=C/C(=O)O)cc2c1OCC2(C)C    F
CC(/C=C/[C@@H]1C[C@]1(C)c1cc(C(C)C)c2c(c1)C(C)(C)CO2)=C\C(=O)O    F
CCCCCCc1cc([C@@]2(C)C[C@H]2/C=C/C(C)=C/C(=O)O)cc2c1OCC2(C)C    T
COc1ccc(-c2cc([C@@]3(C)C[C@H]3/C=C/C(C)=C/C(=O)O)cc3c2OCC3(C)C)cc1    F
CC(/C=C/[C@@H]1C[C@]1(C)c1cc(C(C)(C)C)c2c(c1)C(C)(C)CO2)=C\C(=O)O    T
CC(/C=C/[C@@H]1C[C@]1(C)c1cc(-c2ccc(F)cc2)c2c(c1)C(C)(C)CO2)=C\C(=O)O    F

----------
targetOrSystem: UniProtKB P28704
procedureDetails: receptor transactivation assay, RXRβ
Assay type: cell-based
Set-up: RXR Trans; other: RXRβ; first entry of cell
conditionSet: parenthesised number, not defined in the patent
Parameter threshold = 100. Response is y when RXR Trans. β, number in parentheses after EC50 meets or exceeds it, else n.

CC(/C=C/[C@@H]1C[C@]1(C)c1cc(Br)c2c(c1)C(C)(C)CO2)=C\C(=O)O    y
CC(/C=C/[C@@H]1C[C@]1(C)c1ccc2c(c1)C(C)(C)CO2)=C\C(=O)O    y
CC(/C=C/[C@@H]1C[C@]1(C)c1cc(-c2ccccc2)c2c(c1)C(C)(C)CO2)=C\C(=O)O    n
CC(/C=C/[C@@H]1C[C@]1(C)c1cc(C(C)(C)C)c2c(c1)C(C)(C)CO2)=C\C(=O)O    n
CC(/C=C/[C@@H]1C[C@]1(C)c1cc(-c2ccc(F)cc2)c2c(c1)C(C)(C)CO2)=C\C(=O)O    n
CCc1cc([C@@]2(C)C[C@H]2/C=C/C(C)=C/C(=O)O)cc2c1OCC2(C)C    n
CC(/C=C/[C@@H]1C[C@]1(C)c1cc(C)c2c(c1)C(C)(C)CO2)=C\C(=O)O    y
CC(/C=C/[C@@H]1C[C@]1(C)c1cc(CC(C)(C)C)c2c(c1)C(C)(C)CO2)=C\C(=O)O    n
CCCCCCc1cc([C@@]2(C)C[C@H]2/C=C/C(C)=C/C(=O)O)cc2c1OCC2(C)C    n
CC(/C=C/[C@@H]1C[C@]1(C)c1cc(CC2CCCCC2)c2c(c1)C(C)(C)CO2)=C\C(=O)O    n
CC(/C=C/[C@@H]1C[C@]1(C)c1cc(C(C)C)c2c(c1)C(C)(C)CO2)=C\C(=O)O    y
CC(/C=C/[C@@H]1C[C@]1(C)c1cc(-c2ccc(C(C)(C)C)cc2)c2c(c1)C(C)(C)CO2)=C\C(=O)O    n
CC(/C=C/[C@@H]1C[C@]1(C)c1cc(Cc2ccccc2)c2c(c1)C(C)(C)CO2)=C\C(=O)O    y
CC(/C=C/[C@@H]1C[C@]1(C)c1cc(-c2c(C)cccc2C)c2c(c1)C(C)(C)CO2)=C\C(=O)O    y

----------
targetOrSystem: RXRα (Homo sapiens, UniProt P19793)
Sequence (P19793 whole entry): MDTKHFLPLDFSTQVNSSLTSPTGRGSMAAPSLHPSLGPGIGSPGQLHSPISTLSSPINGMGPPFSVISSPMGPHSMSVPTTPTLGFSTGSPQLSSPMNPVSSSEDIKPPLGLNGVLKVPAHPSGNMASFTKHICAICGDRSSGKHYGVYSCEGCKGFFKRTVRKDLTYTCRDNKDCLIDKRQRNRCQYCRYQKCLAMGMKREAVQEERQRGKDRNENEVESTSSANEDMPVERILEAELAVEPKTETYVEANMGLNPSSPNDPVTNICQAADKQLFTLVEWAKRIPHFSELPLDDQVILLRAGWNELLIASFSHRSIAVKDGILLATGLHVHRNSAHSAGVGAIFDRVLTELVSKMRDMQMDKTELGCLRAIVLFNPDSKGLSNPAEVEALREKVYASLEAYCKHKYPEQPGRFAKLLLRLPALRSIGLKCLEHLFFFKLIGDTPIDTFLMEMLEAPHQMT
procedureDetails: ligand binding assay, RXRα
conditionSet: last entry of cell, read-out: RXR Bind Ki (nM) α
Source text: A holoreceptor transactivation assay and a ligand binding assay which measure the antagonist/agonist like activity of the compounds of the invention, or their ability to bind to the several retinoid receptor subtypes, respectively, are described in published PCT Application No. WO WO93/11755 (particularly on pages 30-33 and 37-41) published on Jun. 24, 1993, the specification of which is also incorporated herein by reference. […]
Here, each record is paired with measured Ki data.
reportedProperty: Ki (nM)

CCCCCCc1cc([C@@]2(C)C[C@H]2/C=C/C(C)=C/C(=O)O)cc2c1OCC2(C)C    1.9
CC(/C=C/[C@@H]1C[C@]1(C)c1cc(CC2CCCCC2)c2c(c1)C(C)(C)CO2)=C\C(=O)O    0.3
CC(/C=C/[C@@H]1C[C@]1(C)c1ccc2c(c1)C(C)(C)CO2)=C\C(=O)O    7.8
CC(/C=C/[C@@H]1C[C@]1(C)c1cc(-c2ccccc2C)c2c(c1)C(C)(C)CO2)=C\C(=O)O    1.2

----------
targetOrSystem: RXRα (Homo sapiens)
procedureDetails: ligand binding assay, RXRα
conditionSet: last entry of cell, read-out: RXR Bind Ki (nM) α
reportedProperty: Ki (nM)

COc1ccc(-c2cc([C@@]3(C)C[C@H]3/C=C/C(C)=C/C(=O)O)cc3c2OCC3(C)C)cc1 [Compound 32]    66
CC(/C=C/[C@@H]1C[C@]1(C)c1cc(-c2ccc(F)cc2)c2c(c1)C(C)(C)CO2)=C\C(=O)O [Compound 34]    0.5
CCCCCCCc1ccccc1-c1cc([C@@]2(C)C[C@H]2/C=C/C(C)=C/C(=O)O)cc2c1OCC2(C)C [Compound 28]    35
CC(/C=C/[C@@H]1C[C@]1(C)c1cc(C(C)C)c2c(c1)C(C)(C)CO2)=C\C(=O)O [Compound 8]    1.7
CCCCC(=O)CCc1cc([C@@]2(C)C[C@H]2/C=C/C(C)=C/C(=O)O)cc2c1OCC2(C)C [Compound 40]    41
CC(/C=C/[C@@H]1C[C@]1(C)c1cc(-c2ccccc2)c2c(c1)C(C)(C)CO2)=C\C(=O)O [Compound 22]    2.3
CC(/C=C/[C@@H]1C[C@]1(C)c1cc(C(C)(C)C)c2c(c1)C(C)(C)CO2)=C\C(=O)O [Compound 10]    0.8
CC(/C=C/[C@@H]1C[C@]1(C)c1cc(Cc2ccccc2)c2c(c1)C(C)(C)CO2)=C\C(=O)O [Compound 14]    0.8
CC(/C=C/[C@@H]1C[C@]1(C)c1cc(C)c2c(c1)C(C)(C)CO2)=C\C(=O)O [Compound 4]    6.3
